B1: Hairpin Ribozyme (parent)
chain: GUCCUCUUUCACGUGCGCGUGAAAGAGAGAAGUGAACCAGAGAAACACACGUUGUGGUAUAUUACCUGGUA

variants of: B1; assay: self-cleavage, relative activity (ratio to wild type); higher = more cleavage; co-transcriptional
self-cleavage values for the variants below.

# residue.codes, self-cleavage
data = [
    ("GUCCUCUUUCACGUGCGCGUGAAGGAGAGAAGUGAACCAGAGAAACACACGUUGUGGUAUAUUACCUGGGA", 0.834),
    ("GUUCUCUUUCACGUGCGCGUGAAAGAGAGAAGUGAACCAGAGAAACACACGUUGUGGUAUAUUACCUGAUA", 0.16),
    ("GUCCUCUUUCACGUGCGCGUGAAAGAGAGUAGUGAACCAGAGAAACACACGUUGUGGUAUAUUAGCUGGUA", 0.228),
    ("GUCCUCUUUCACGUGCGCGUGAAAGAGAGAAGUGAACCAGACAAACACACGUUGUGGUAUAUUACCUGAUA", 0.0872),
    ("GUCCUCUUUCACGUGCGCGUGAAAGGGAUAAGUGAACCAGAGAAACACACGUUGUGGUAUAUUACCUGGUA", 0.0885),
    ("GUCCUCUUCCACGUGCGCGUGAAAGAGAGAAGUGAACCAGAGAAACACACGUUGUGGUACAUUACCUGGUA", 0.981),
    ("GUCCUCUUUCACGUGCGCGUGAAAGAGAGAAGUGAACCAGAGAAAGACACGUUGUGGUAUAAUACCUGGUA", 0.148),
    ("UUCCUCUUUCACGUGCGCGUGAACGAGAGAAGUGAACCAGAGAAACACACGUUGUGGUAUAUUACCUGGUA", 0.162),
    ("GUCCUCUUUCACGUCCGCGUGAAAGAGAGAAGUGAACAAGAGAAACACACGUUGUGGUAUAUUACCUGGUA", 0.22),
    ("GUCCUCUUUCACGUGCCCGUGAAAGAGAGAAGUGAACCAGAGAAACCCACGUUGUGGUAUAUUACCUGGUA", 0.187),
    ("GUCCUCUUUCACGUCCGCGUGAAAGAGAGAAGUGACCCAGAGAAACACACGUUGUGGUAUAUUACCUGGUA", 0.678),
    ("GUCCUCUUUCACGUGCGCGUGAAAGAGAGAAGUGAACCAGUGAAACACACGUUGUGGUAUAAUACCUGGUA", 0.143),
    ("GUCCUCUUUCACGUGCGCGUGAAAGAGAGAAGUGAACCAGAGAAACAGACGUCGUGGUAUAUUACCUGGUA", 0.206),
    ("GUCCUCUUUCACGUGCGCGUGAAAGAGAGAAGUGAACCAGAGUAACACACGUUGUGAUAUAUUACCUGGUA", 0.119),
    ("GUCCUCUUUCACGUGCGCGUCAAAGAGAGAAGAGAACCAGAGAAACACACGUUGUGGUAUAUUACCUGGUA", 0.133),
    ("GUCCUCUUUCACGUGCGCGUGAAAGAGAGAAGUGAACCAGAGAAACACGCCUUGUGGUAUAUUACCUGGUA", 0.495),
    ("GUCCUCUUUCACGUGCGCGUGAAAGAGAGAAGUGAACCAGAAAAACACACGUUGUCGUAUAUUACCUGGUA", 0.105),
    ("GUCCUCUUUCACGUGCGCGUGAAAGAGAGAAGUGAACCAGAGAAACACAGAUUGUGGUAUAUUACCUGGUA", 0.249),
    ("GCCCUCUUCCACGUGCGCGUGAAAGAGAGAAGUGAACCAGAGAAACACACGUUGUGGUAUAUUACCUGGUA", 0.139),
    ("GUCCUCUUUCACGUGCGCGUGAAAGCGAGAAGCGAACCAGAGAAACACACGUUGUGGUAUAUUACCUGGUA", 0.143),
    ("GUCCUCUUUCACGUGCGCGUGGAAGAGAGAAGUGAACCAGAGAAACACACGUUGUGGUAUCUUACCUGGUA", 0.337),
    ("GUCCUCUUUCACGUGCGCGUGAAAGAGAGAAGUGAACCAGAGAAACACACGUUGUGGUAUAUUACCUCGUA", 0.212),
    ("GACCUCUUUCACGUGCGCGUGAAAGAGAGAAGGGAACCAGAGAAACACACGUUGUGGUAUAUUACCUGGUA", 0.151),
    ("GUCCUCUUUCACGCGCGCGUGAAAGAGAAAAGUGAACCAGAGAAACACACGUUGUGGUAUAUUACCUGGUA", 0.0903),
    ("GUCCUCUUUCACGUGCGCGUGAAAGAGAGAAGGGAACCAGAGAAAAACACGUUGUGGUAUAUUACCUGGUA", 0.0768),
    ("GUCCUCUUUCACGUGCGCGUAAAAGAGAGAAGUGAACCAGAGAAACACACGUUGUGGUAUAUUACCUGGUG", 0.854),
    ("GUCCUCUUUCACGUGCGCGUGAAAGAGAGAAGUGAACCAGAGAAACACACGUUGUGGUAUACUACCUGAUA", 0.112),
    ("GUCCUCUUUCACGUGCGCGUCAAAGAGAGAAGUGAACCAGAGAAACACACGUUGUGGUAUAUUACCUGCUA", 0.265),
    ("GUCCUCUUUCACGUGCGGGUGAAAGACAGAAGUGAACCAGAGAAACACACGUUGUGGUAUAUUACCUGGUA", 0.0884),
]
